Assay: yeast display, Sf9 membrane polyspecificity reagent, FACS + sequencing; frameworks hold sequencing errors
readout-kind: polyreactivity (PSR sort gate)

Some sequences with recorded polyreactivity (PSR sort gate):
item-sequence	polyreactivity (PSR sort gate)
QVQLVESGGGLVQAGGSLRLSSAASGSIFDPYAMGWYRQAPGKERELVAGISFSGGRTYYADSVKGRFTISRDNAKNTVYLQMNSLKPEDTAVYYCNKLLTQGAYPYYYWGQGTQVTVSS	high polyreactivity
QVQLVESGGGLDQAGGSLSLSCAASGLIINSNTMGWYRQAPGKERELVAVINWRGGRTYYADSVKGRFTISRDNAKNTVDLQMNSLKPEDTAVYYCAAYLHGARYGYWGQGTQVTVSS	high polyreactivity
QVHLVESGGGLVQAGGSLRLSCAASGSIFTVYTMGWYRQAHGKERELVAAINSRGGTTYYADSVKGRFTISRDYAKNTVYLQMNSLKPEDTAVYYCAAKQRPKSYGPVHYYWGQGTQVTVSS	high polyreactivity
QVQLVESGGGLVQAGGSLCLSCAASGIFVYNAMGWYRQAPGKEREFVAAINKSGASTFYADSVKGRFTISRDNAKNTVYLQMNSLKPEDTAVYYCRERDYWGQGTQVTVSS	low polyreactivity

// switching to the query sequence
**Q:** Entry QVQLVESGGGLVHAGGSLRLSCAASGRLFYPYAMGWYRQAPGKERELVAAITYITGSTYADSVKGRFTISRDNAKNTVYLQMNSLKPEDTAVYYCAADYESGDYWGQGTQVTVSS has what polyreactivity (PSR sort gate)?
**A:** low polyreactivity
